Below, each entry is listed with its recorded surviving fraction.
tested on: E13 (patient-derived glioblastoma stem cells of classical subtype); experiment: surviving fraction (nuclei count normalised to DMSO); higher = more cells surviving (less toxic); details: 4.1 nM; exposure time: 72 h
measurement name: surviving fraction

INSERT INTO results (compound, experimental_target, measured_result) VALUES
  ('C[C@@H](Oc1cc(-c2cnn(C3CCNCC3)c2)cnc1N)c1c(Cl)ccc(F)c1Cl [Crizotinib]', 'E13', 0.978),
  ('C#C[C@]1(O)CC[C@H]2[C@@H]3CCC4=CCCC[C@@H]4[C@H]3CC[C@@]21C [Lynestrenol]', 'E13', 0.994),
  ('CCC(=O)OCC(=O)[C@@]1(OC(=O)CC)[C@H](C)C[C@H]2[C@H]3[C@H]([C@@H](O)C[C@@]21C)[C@@]1(C)C=CC(=O)C=C1C[C@H]3Cl [Alclometasone dipropionate]', 'E13', 0.975);

###

phenotypic distance listing for selected molecules.
test system: E31 (patient-derived glioblastoma stem cells of proneural subtype); test: phenotypic distance (Euclidean, principal components) from DMSO controls (arbitrary units); higher = stronger morphological change; settings: 4.1 nM; exposure time: 72 h
Counter-ions that a name gives are not always drawn.
measurement name: phenotypic distance

INSERT INTO results (molecule, experimental_target, measurement_name, measured_result) VALUES
  ('NC(=O)c1cccc2cn(-c3ccc([C@@H]4CCCNC4)cc3)nc12', 'E31', 'phenotypic distance', 0.907),
  ('CC1=C(/C=C/C(C)=C/C=C/C(C)=C/C(=O)Nc2ccc(O)cc2)C(C)(C)CCC1 [Retinoic acid p-hydroxyanilide]', 'E31', 'phenotypic distance', 0.825),
  ('CN(C)CCN(Cc1ccc(Cl)cc1)c1ccccn1 [Chloropyramine hydrochloride]', 'E31', 'phenotypic distance', 1.06),
  ('OCCN1CCN(CCCN2c3ccccc3Sc3ccc(C(F)(F)F)cc32)CC1 [Fluphenazine dihydrochloride]', 'E31', 'phenotypic distance', 0.66);

###

A collection of molecules and their measured phenotypic distance
tested on: E13; experiment: phenotypic distance (Euclidean, principal components) from DMSO controls (arbitrary units); higher = stronger morphological change; conditions: 3000 nM; exposure time: 72 h
measurement name: phenotypic distance

INSERT INTO measurements (molecule, measurement_name, measured_result) VALUES
  ('COc1cc2c(c(OC)c1OC)-c1ccc(OC)c(=O)cc1[C@@H](NC(C)=O)CC2', 'phenotypic distance', 7.88),
  ('COc1cc(NS(C)(=O)=O)ccc1Nc1c2ccccc2nc2ccccc12', 'phenotypic distance', 7.75),
  ('O=C(C1CC1)N1CC[C@@H](Cc2n[nH]c(=O)n2-c2ccc(-c3ccc4occc4c3)cc2)C1', 'phenotypic distance', 2.99),
  ('O=C(O)c1ccc(-c2c[nH]c3ncc(-c4ccccc4)cc23)cc1C1CCCC1', 'phenotypic distance', 5.39),
  ('Cc1cc(/C=C/c2ccc3cc(N(C)C)ccc3[n+]2C)c(C)n1-c1ccccc1 [Pyrvinium pamoate]', 'phenotypic distance', 6.77),
  ('CC(C)(Oc1ccc(C2CC2(Cl)Cl)cc1)C(=O)O (stereo unspecified) [Ciprofibrate]', 'phenotypic distance', 0.745);

###

system: E57 (patient-derived glioblastoma stem cells of mesenchymal subtype); test: surviving fraction (nuclei count normalised to DMSO); higher = more cells surviving (less toxic); conditions: 37 nM; exposure time: 72 h
Counter-ions that a name gives are not always drawn.
Reported surviving fraction is given for each of the following molecules.
measurement name: surviving fraction

INSERT INTO assay_data (molecule, experimental_target, measurement_name, measured_result) VALUES
  ('CC(=O)O[C@@]12CO[C@@H]1C[C@H](O)[C@@]1(C)C(=O)[C@H](O)C3=C(C)[C@@H](OC(=O)[C@H](O)[C@@H](NC(=O)OC(C)(C)C)c4ccccc4)C[C@@](O)([C@@H](OC(=O)c4ccccc4)[C@H]21)C3(C)C', 'E57', 'surviving fraction', 0.078),
  ('Cc1cc(/C=C/c2ccc3cc(N(C)C)ccc3[n+]2C)c(C)n1-c1ccccc1 [Pyrvinium pamoate]', 'E57', 'surviving fraction', 0.785),
  ('COC(=O)Nc1nc2cc(C(=O)c3ccccc3)ccc2[nH]1', 'E57', 'surviving fraction', 0.876),
  ('CCC(=O)OCC(=O)[C@@]1(OC(=O)CC)[C@H](C)C[C@H]2[C@H]3[C@H]([C@@H](O)C[C@@]21C)[C@@]1(C)C=CC(=O)C=C1C[C@H]3Cl [Alclometasone dipropionate]', 'E57', 'surviving fraction', 1.1),
  ('Nc1nc2n[nH]nc2c(=O)[nH]1', 'E57', 'surviving fraction', 0.831),
  ('CC[C@@]1(O)C(=O)OCc2c1cc1n(c2=O)Cc2cc3cc(O)ccc3nc2-1 [Hydroxy Camptothecine]', 'E57', 'surviving fraction', 0.148),
  ('NC1CCN(c2nc3c(cc2F)c(=O)c(C(=O)O)cn3-c2ccc(F)cc2F)C1 (stereo not given) [Tosufloxacin hydrochloride]', 'E57', 'surviving fraction', 1),
  ('COc1ccc(/C=C\c2cc(OC)c(OC)c(OC)c2)cc1OP(=O)(O)O [Fosbretabulin Disodium]', 'E57', 'surviving fraction', 0.943),
  ('CN(C)CCN(Cc1ccc(Cl)cc1)c1ccccn1 [Chloropyramine hydrochloride]', 'E57', 'surviving fraction', 0.96),
  ('O=C(Nc1ccc([N+](=O)[O-])cc1Cl)c1cc(Cl)ccc1O [Niclosamide]', 'E57', 'surviving fraction', 0.2);
